- System: HL-60
- test: Cytotoxicity against human HL60 cells by MTT assay
- Format: functional, cell-based
The reader will find reported IC50 values listed item by item below.

molecule	IC50 [µg/mL]
C=C(C)[C@@H]1CC[C@]2(CO)CC[C@]3(C)[C@H](CC[C@@H]4[C@@]5(C)CC[C@@H](O)C(C)(C)[C@@H]5CC[C@]43C)[C@@H]12 [3-EPI-BETULIN]	1.7
COc1cccc2c1C(=O)c1c(O)c3c(c(O)c1C2=O)C[C@@](O)(C(=O)CO)C[C@@H]3O[C@H]1C[C@H](N)[C@H](O)[C@H](C)O1	0.003
C=C(C)[C@@H]1CC[C@]2(C(=O)O)CC[C@]3(C)[C@H](CC[C@@H]4[C@@]5(C)CC[C@H](O)C(C)(C)[C@@H]5CC[C@]43C)[C@@H]12	2
C=C(C)[C@@H]1CC[C@]2(C(=O)O)CC[C@]3(C)[C@H](CC[C@@H]4[C@@]5(C)CC[C@@H](O)C(C)(C)[C@@H]5CC[C@]43C)[C@@H]12 [EPIBETULINIC ACID]	2.3
C=C(C=O)[C@@H]1CC[C@]2(CO)CC[C@]3(C)[C@H](CC[C@@H]4[C@@]5(C)CCC(=O)C(C)(C)[C@@H]5CC[C@]43C)[C@@H]12	1.6
